# System: MS2 coat protein
# experiment_description: apparent KD of MS2 coat protein; designed switch direction (-1 OFF switch, 1 ON switch): -1; higher = weaker reporter binding
# setup_conditions: input ligand: none
Assign MET whenever apparent KD of MS2 coat protein does not fall below 0.1 µM; assign NOT MET whenever it does.

Could you please find out whether AGCGAGGUAGGAUAUACAUGAGGAUCACCCAUGUGCUUGCAUGGCGUGGAAUGUCGAGGUAGAAGGGCCAUGCC [EX3 #72] (Eterna round: R97, puzzle: Exclusion 3) has apparent KD of MS2 coat protein that meets 0.1 µM or exceeds it?
NOT MET

Determine whether this sequence has apparent KD of MS2 coat protein no lower than 0.1 µM: GGAUCACAUGUCAGGAUAUGCUGGUCCUUGGAUCAGCAGAAGGGACAUGAGGAUCACCCAUGUCAUGAAGAUCC [Eli bmx4 4.80] (Eterna round: R97, puzzle: Brourd's mod of Exclusion 4)
MET

// inclusive: apparent KD of MS2 coat protein at least 0.1 µM? input: GGCAUGUGAGGAUAUUAACGGCCUAGACCUGGAACGCCACUUAAGAAGGUACAUGAGGAUCACCCAUGUUGGUG [Eternabot (L2) Solution 19] (Eterna round: R97, puzzle: Exclusion 4)
MET

Quick check: does CCACGACAUGAGGAUCACCCAUGUGAGGAUAUGGCCUGAAAAGCGUGAGCAGAAUCAAUCAGAAGGCGCGUGGG [salish99_ex1_r4_060] (Eterna round: R97, puzzle: Exclusion 1) have apparent KD of MS2 coat protein greater than or equal to 0.1 µM?
NOT MET

Answer whether apparent KD of MS2 coat protein of GCACUGGCAGGAUAUACAUGAGGAUCACCCAUGUGAUCCCUUAGGUACAAAAGUACUAGUAGAAGGGCCUGUGC [Omei Ex3 Model Bachelor's Dilema v48] (Eterna round: R97, puzzle: Exclusion 3) is greater than or equal to 0.1 µM.
MET

Could you tell me if the measured apparent KD of MS2 coat protein of UAUUUAGCAAGCAGAUCCCACAUGAGGAUCACCCAUGUUCUCUGAACGUACAGAAUUACUGUACGAGCUCGUCUUAU [Winner reversed engineered 30] (Eterna round: R97, puzzle: Sensor, turn-off variant 1) reaches 0.1 µM or more?
MET

Form field: apparent KD of MS2 coat protein at least 0.1 µM? Entry: AAAGUGGGCCAGAACAUGAGGAUCACCCAUGUCUGAAAUAGCAAGGAUAUUACGAGCAAAAGGAGUAAGAAGGUGCACAGUACG [Eternabot solution 41] (Eterna round: R96, puzzle: Exclusion NG 3)
NOT MET

Decide: is the reported value of apparent KD of MS2 coat protein for AGAUCACAUGAGGAUCACCCAUGUCAGGAUAUCUACAUUGAAGCUUCGGCUUCAAUGUAGAGAAGGGAUAAUUA [E1/4-B1] (Eterna round: R97, puzzle: Exclusion 1) equal to or greater than 0.1 µM?
NOT MET

Hello, I need to know if CUUAGCGUAGGAUAUUAGUACAUGAACAUGAGGAUCACCCAUGUGAGGUGGGUCUUAGAUUAAGAAGGGCGAAGAA [EX5 #32] (Eterna round: R97, puzzle: Exclusion 5) has measured apparent KD of MS2 coat protein not below 0.1 µM. Thanks!
MET

Form field: apparent KD of MS2 coat protein at least 0.1 µM? Entry: AUAAUGUAAGGAUAUCAGUCGACUAGCGAUAGCUAGUCGACUGAGAAGGUACAUGAGGAUCACCCAUGUGAAUA [E4/16-A4] (Eterna round: R97, puzzle: Exclusion 4)
NOT MET

Say whether CAUGAUUGGCGAGGAUAUUGAUCUACAUGGCGACGAGAAGGCGCCUGUCACAUGAGGAUCACCCAUGUGAGUCUGGUGAAUGAG [Ex NG1 #85] (Eterna round: R96, puzzle: Exclusion NG 1) shows apparent KD of MS2 coat protein of 0.1 µM or more.
NOT MET

Could you tell me if the measured apparent KD of MS2 coat protein of CAAGAAAAGAAAGGAUAUAGCGCGGAGCCGCAGCUAGAAGGUUCGGUGGGUAUCCUGUAACAUGAGGAUCACCCAUGUAAAGAG [Texelara] (Eterna round: R96, puzzle: Exclusion NG 1) reaches 0.1 µM or more?
MET

Reported apparent KD of MS2 coat protein reaches at least 0.1 µM for CUUAAGUUAGGAUAUGCGCUACGGAAUCGUGGUUAUAGACAGCAGAAGGAACUUGAGGAUCACCCAAGUAAAUA [Inatsoce] (Eterna round: R97, puzzle: Exclusion 4) ?
MET

---

# Tested on: K4 kissing-loop RNA reporter;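 further: bound reporter read as fluorescence of individual clusters on recovered sequencing chips by microscopy, with normalized cluster intensities fitted with a binding model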
# experiment_description: apparent KD of K4 kissing-loop reporter; higher = weaker reporter binding
# setup_conditions: Eterna round: R107; input ligand: none
parameter_measured: apparent KD of K4 kissing-loop reporter
Phrase the answer as number then unit, nothing more needed.

Illustrative cases are given below, each with its answer.
>  <sequence_string>
UAGUCCUAGUGAUCGUUAUCACGUGGUGGGCGAGGACCGGUACGGCCGCCACUCGACUAUGCAGUGAUGUUGCAAUCCGGACAAU [Exclusion - Tryptophan A (Freestyle 15)]

>  <apparent KD of K4 kissing-loop reporter>
477 nM

$$$$
>  <sequence_string>
AGCAGUGAUGUUGCAUUUAAAAUGACCGAUACCAGUAUCGAUAGAUACCCUUGGCAGCGGAUUUCCGCAACGACUAGGAAACUAG [Ex Theophylline A K4 15]

>  <apparent KD of K4 kissing-loop reporter>
436 nM

$$$$

apparent KD of K4 kissing-loop reporter lookup needed for CGGCCGUUAUGAGAUACCAGAGUGGCGACCAGUGAUGUUGGUCGACGCUUGCGGUCGUCUCUCCCUUGGCAGCUUAGUACGAAAG [Inisar] , thanks.
91.8 nM

I am curious: what apparent KD of K4 kissing-loop reporter value has been reported for UUUGGAGUGGGAGGAUAUCCUAAUAUGGGUGAUGUUAGCGAUGUUGAAAGUGUAGUGAUGUUGUGCGGAGAAGGUCCAGUGUAGA [BDazzled - #14 - Exc. FMN B] ?
285 nM

Request the reported apparent KD of K4 kissing-loop reporter associated with AUUUUUUUGUCAGGAUAUUAGUGUGGGUUUGGUUUGUUAGUGAUGUUGAUAUUUGUUUUAUGUAUUUAAGAAGGGAUUUAGCGGU [zzdxemullin]
431 nM

I'd like to know its apparent KD of K4 kissing-loop reporter. The sequence in question is AUGCGCGUGCGAUGGAAAUCGCACGCGCAUCGAGGACCGGUACGGCCGCCACUCGCUCGCGCCGAGUGAUGUUCGGCCGGCGAAC [#2 SameState - Tryptophan_A Attempt #3 (HarryS)]
283 nM

What value of measured apparent KD of K4 kissing-loop reporter is listed for GCAGUGAUGUUGCAAAAUGUCUGUGGUAGUCGAGGACCGGUACGGCCGCCACUCGGUGAGAACCUGCUAAUACAUCGAUAAGUGA [IX] ?
627 nM

I have this sequence here, CGGGAUGUUAAAGGAUAUAGCAGGUGAUACAAGAAAGUGAGUGAUGUUUAUGUAGAUGAUGAUAUGUUAGAAGGUUAACAAAACG [abcdefghijkl] , and I need its recorded apparent KD of K4 kissing-loop reporter.
908 nM

Give the measured apparent KD of K4 kissing-loop reporter of CUGACCAACAGCGAUACCAGCGUGGAGUGAUGUUCCGUGGAUCGGAGUGAUGUUCCGAAGCGCCCUUGGCAGCGCAGAAGCAGGA [Exclusion Theophylline B GF11] .
201 nM

Record request: apparent KD of K4 kissing-loop reporter value, item AAUGUACAGGGAAGGAGCGUAGUCCAGUGAUGUUGGAGUUAAAUACCAGUGAUGUUGGUUAUACAGGUAGGUCGCCCUAAAGUGC [Exclusion Arginine B Gf 4]
80.9 nM

Returns the measured apparent KD of K4 kissing-loop reporter for the input sequence. Input: AGGAUCCGUCGACAAAAGUCGACAUAAGCCAAGGAUAUGACGAAAGUCAGAAGGUGGUCAUAAGACCAGUGAUGUUGGUGGAUCC [FmnA 13 #SwitchBubble #K4Late]
526 nM

Given UUUUAAAUGUCUGAUACCAGAGAAAAUAUAUGUAGUGAUGUUAUAUACAAAUUUAAUAAGCUCCCUUGGCAGCAGUAUGAAUUUU [AstrosExc-TheB#12] , state its recorded apparent KD of K4 kissing-loop reporter.
873 nM

Query (sequence): GUAGAUAGGCUACAUCUCUAGUCUAAACACUAGGAUAUCAGGAAACUGAGAAGGAGUGUCAUUGGAGUGAUGUUCCAAGAAUAAU [KL-SSFMN-A17] ; field requested: apparent KD of K4 kissing-loop reporter
185 nM

I would be grateful if you could share the reported apparent KD of K4 kissing-loop reporter for UGGAUAUAGUGAUGUUAUAUAGAGAGUGAUACCAGUUUAGAGAAGAACCCUUGGCAGCAUAAAGAAGUAUCAUUAGAGAAGAAUG [ExTheophyl.Ao] .
282 nM

Query: apparent KD of K4 kissing-loop reporter; subject: AGAGUUAUGCGAGGAUAUGCAGUUAGUACUCAAAGAGUACUAACGGCAGAGUGAUGUUCUGUGAAAGCAGAAGGUGCAUAACUCA [Omei KL FMN B SS B v8]
1370 nM

Looking for the measured apparent KD of K4 kissing-loop reporter of GGUUUAUAGGAGGAUACCAGUACGAAUAAAGUACAUUAAUAGUAGAGUGAUGUUCUAAAGUACCCUUGGCAGCUUAGAGUAAGUU [#18 K4 Theophylline B Exclusion] , can you help?
148 nM

Recorded apparent KD of K4 kissing-loop reporter for CGUUUAUAGCAGGAUACCAGUACCCAUUAUGUACGUUUAUAGUAGAGUGAUGUUCUAAAGUACCCUUGGCAGCUUCCUGUGUCCC [ExTheophylB.Ab] , please?
190 nM

// lookup apparent KD of K4 kissing-loop reporter for UUAGGCUCUCUUCUCAUUCGCUUAACCGAUACCAGAGUAAGCCCUCUCCCUUGGCAGCGGAGUGAUGUUCCGAGUGUUGAUAUUG [theeternabot_exclusion_KL_Theo_A_44]
113 nM

Name the recorded apparent KD of K4 kissing-loop reporter for UUCGGCCUGACGGCCGCCACUUUGGGUAGUGAUGUUACCAACAUUCACCAGAUACAGGUUACUUCAAGGACCGGGUCAGACGGUG [theeternabot_exclusion_KL_Trp_B_45] .
121 nM

Data request, read-out apparent KD of K4 kissing-loop reporter, for CGGCUCUAUCCUAGUAUUAAGAGGGAGUUGCGAGGACCGGUACGGCCGCCACUCGAAGUAGUUUGGCCAGUGAUGUUGGUCUUAC [Qubeatonza]
129 nM

apparent KD of K4 kissing-loop reporter lookup needed for GGGUCUGUCGGAAGGAGCGCGCUAUGGAGUGAUGUUCCAUGACCGUACAGCUUACGGUCAGCGCAGGUAGGUCGCCGAUAGCGUU [Geordiar] , thanks.
142 nM

Can you share its apparent KD of K4 kissing-loop reporter? I mean this sequence: ACGUCACGUAAACUCGUGGUUUCGAUCGAUACCAGUAGCGAGAGUUACCCUUGGCAGCGACAUGAGUGAUGUUCAUGUACGAAGA [KL-XTheoA1]
97 nM

Find the recorded apparent KD of K4 kissing-loop reporter belonging to AGACUACCACACUGUCAAUAGACAGUGAAUUAGGAUAUGCUGAUAAGCAGAAGGAGUGAUGUUCCCAGGUAGUCAAUAAAAUAAU [FmnAX 13 U30+C66] and report it.
167 nM
